# assayed-system: Alpha-bungarotoxin (Bungarus multicinctus)
# assay-name: alpha-bungarotoxin binders on microarray, profiling panel, artefact control for SMM control protein annotation, biochemical, small-molecule microarray, Alexa647 label, 635/667 nm fluorescence (AID 1117)
# stated-conditions: alpha-BTX-A647 binding fluorescence, higher = more signal
measurement-name: composite z-score

1. COC(=O)C(CC#Cc1ccc2c(c1)[C@]1(C(=O)N2)[C@H](c2ccc(O)cc2)N2[C@H](c3ccccc3)[C@H](c3ccccc3)OC(=O)[C@H]2[C@@H]1C(=O)N1CCCCCCC1)C(=O)OC	2.18
2. C[C@@H]1ON(c2ccc(I)cc2)[C@H](c2ccc(OC(=O)OC(C)(C)C)cc2)[C@H]1C(=O)N1C(=O)OC[C@H]1Cc1ccccc1	0.943
3. COC(=O)[C@@]1(Cc2ccccc2)[C@H]2c3cc(C(=O)N(C)C)n(CCn4cc([N+](=O)[O-])nc4C)c3C[C@H]2CN1C(=O)c1ccccc1	0.413
4. C=C(CCCC)C(=O)CC[C@H](OC(C)=O)c1ccc(OCCO)cc1	0.657
5. CC(C)C(=C=CC[C@H](O)c1cccc(OCCO)c1)CCO	0.115
6. Cc1cccc([C@H]2C[C@H]3C(Br)=C[C@@H]2C(=O)[C@]32CO2)c1	0.106
7. NC(=O)[C@H]1[C@@H]2C(=O)O[C@@H](c3ccccc3)[C@@H](c3ccccc3)N2[C@@H](c2ccc(O)cc2)[C@]12C(=O)Nc1ccccc12	-1.15
8. CCOC(=O)C[C@H]1[C@H](OC(=O)c2ccc(C(=O)c3ccccc3)cc2)[C@@H](NC(=O)CC(C)C)c2cc(OCCCO)ccc2N1C(=O)Cc1ccc(OC)cc1	0.118
9. COc1ccc(C(=O)Nc2cccc(CN3C(=O)[C@]4(O[C@H](CCn5cc([C@H](O)c6ccccc6)nn5)[C@@H]([Si](C)(C)c5ccc(OC)cc5)[C@@H]4C)c4ccccc43)c2)cc1	1.09
10. COCCOC(=O)N1C(=O)[C@@]2(c3ccccc31)[C@H](c1ccc(OCCO)cc1)N1[C@H](c3ccccc3)[C@H](c3ccccc3)OC(=O)[C@H]1[C@@H]2C(=O)N1CCCCCCC1	5.03
11. C=C(CCCC)/C(=C/C[C@H](OC(C)=O)c1ccc(OCCO)cc1)c1cc(C(=O)OC)ccc1OC	0.558
12. CN(C)C(=O)[C@@]1(Cc2ccccc2)COC(c2ccc(OCCCO)cc2)=N1	-0.579
13. COc1cc(C(O)C2C=CC3C(=O)N(Cc4ccccc4)C(=O)C3N2n2cnnc2)cc(OC)c1OC (configuration not stated)	0.971
14. COCCCNC(=O)[C@@]1(c2ccc([N+](=O)[O-])cc2)CC(=O)N(C(C)C)[C@@H]1c1ccc(CO)cc1	1.88
15. Cc1c(NC(=O)/C(C#N)=C/c2ccccc2Cl)c(=O)n(-c2ccccc2)n1C	0.42
16. CN(C)C(=O)[C@]1(CCS(=O)(=O)c2ccccc2)N=C(c2ccc(OCCCO)cc2)O[C@@H]1c1ccccc1	0.915
17. O=C1OCCC/C=C\[C@H]2OC34C=CCN(c5ccc6ccccc6c5)C(=O)[C@H]3N(CCCO)C(=O)[C@@H]4C12 (some centres not stated)	-0.766

----------
# assay-name: small-molecule binders of probe aNOTCH2, primary screen, biochemical, small-molecule microarray, 635/667 nm fluorescence (AID 1121);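 further: score merges feature fluorescence read at 667 nm with its signal to noise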
# stated-conditions: higher = more signal
The entries below are paired with their reported composite z-score.
measurement-name: composite z-score

1. COC(=O)C(CC#Cc1ccc2c(c1)[C@]1(C(=O)N2)[C@H](C(=O)Nc2nc3ccccc3s2)[C@H]2C(=O)O[C@H](c3ccccc3)[C@H](c3ccccc3)N2[C@@H]1c1ccc(OCCO)cc1)C(=O)OC	-0.0209
2. O=C1C2C=CC(C(O)C=Cc3ccc([N+](=O)[O-])cc3)N(Nc3ccccc3)C2C(=O)N1c1ccccc1 (stereo not given)	0.0167
3. CN(C)CCCCCCNC(=O)[C@@H]1C[C@@H]2C(=O)N[C@@H](CCCCN)C(=O)N2[C@@H]1c1ccc(O)cc1	0.999
4. CC(CO)N1C(=O)[C@@H]2[C@H]3C(=O)OCC=C[C@H]3OC23C=CCN(c2ccc(Cl)cc2)C(=O)[C@@H]13 (stereo not given in full)	-0.161
5. CC(C)C[C@@H]1NC(=O)[C@@]23C(=O)N[C@@H](Cc4ccccc4)C2[C@H](C)[C@@]2(C)O[C@H]2C3/C=C/C/C=C\CNC(=O)[C@@H](C)NC1=O (stereo not given in full)	-0.196

----------
# System: XIP peptide (Xip251-270)
# assay-name: small-molecule binders of XIP peptide, primary screen, biochemical, small-molecule microarray, fluorescence 635/667 nm, 0.5 µg/mL protein (AID 1183)
# stated-conditions: small-molecule microarray binding, fluorescence 635 nm; higher = more signal
measurement-name: composite z-score

1) C=CCNC(=O)[C@H]1[C@@H]2C(=O)O[C@@H](c3ccccc3)[C@@H](c3ccccc3)N2[C@@H](c2ccc(OCCO)cc2)[C@]12C(=O)Nc1ccc(C#CCNC(N)=O)cc12	0.512
2) COCC1C2CC[C@H]3C(OCc4ccc(OC)cc4)OC[C@]4(C)[C@H]3C2=C(CN4C(=O)OC(C)(C)C)[C@H](C)C1COC (stereo partly specified)	0.682
3) COCCCNC(=O)[C@@]1(Sc2ccc(C)cc2)CC(=O)N(Cc2ccccc2Cl)[C@@H]1c1ccc(CO)cc1I	0.194
4) CC(C)=CCCC(C)=CC(O)C1C=CC2C(=O)N(c3ccccc3)C(=O)C2N1Nc1ccccc1F (stereo unspecified)	0.546
5) COCCOC(=O)N1C(=O)[C@@]2(c3cc(C#CCNC(N)=O)ccc31)[C@H](c1ccc(O)cc1)N1[C@H](c3ccccc3)[C@H](c3ccccc3)OC(=O)[C@H]1[C@@H]2C(N)=O	0.124
6) COC(=O)c1c2oc(c1C(=O)OC)C(=O)N1CCC[C@H]1Cn1nncc1CN(Cc1ccccc1)C(=O)N[C@H](CO)CC2	0.59
7) COc1cc2c(cc1OC)CN(C(=O)[C@@H]1[C@H]3C(=O)O[C@H](c4ccccc4)[C@H](c4ccccc4)N3[C@H](c3ccc(O)cc3)[C@@]13C(=O)Nc1ccc(C#CCCO)cc13)CC2	0.723
8) CC(C)(C)OC(=O)CC[C@]1(C(=O)N2CCCCC2)COC(c2ccc(OCCCO)cc2)=N1	0.643
9) COc1ccc([Si](C)(C)[C@@H]2[C@@H](CC(=O)N3Cc4ccccc4C[C@H]3CO)O[C@]3(C(=O)N(Cc4ccc(N5CCC5=O)cc4)c4ccccc43)[C@H]2C)cc1	0.682
10) O=C1OCCC/C=C\[C@H]2OC34C=CCN(c5ccc6ccccc6c5)C(=O)[C@H]3N(CCCO)C(=O)[C@@H]4C12 (stereo partly specified)	0.481
11) CCOC(=O)C[C@H]1[C@H](OC(=O)c2ccccc2-c2ccccc2)[C@@H](NC(=O)c2ccc3ccccc3n2)c2cc(OCCCO)ccc2N1C(=O)c1ccccc1	0.04

----------
# assay-name: basal RPMI8226 mitochondrial membrane potential changes, profiling panel, cell-based, JC-1 fluorescence, 24 h, 100 nL compound (AID 1169)
# stated-conditions: RPMI8226 myeloma, JC-1 mitochondrial potential fluorescence, higher = more signal
measurement-name: z-score

1) COCCOC(=O)N1C(=O)[C@@]2(c3ccccc31)[C@H](c1ccc(OCCO)cc1)N1[C@H](c3ccccc3)[C@H](c3ccccc3)OC(=O)[C@H]1[C@@H]2C(=O)N1CCCCCCC1	-0.345
2) CCCCC=C[C@@H](NC(=O)c1ccccc1)c1ccccc1	0.135
3) CCN(CC)c1ccc(N2CC=CC34O[C@@H]5C=CCCOC(=O)C5[C@H]3C(=O)N(CCO)[C@@H]4C2=O)cc1 (stereo partly drawn)	0.277
4) CC1CC/C=C\[C@H]2OC34C=CCN(C(C)(C)C)C(=O)[C@H]3N(C(CO)C(C)C)C(=O)[C@@H]4C2C(=O)O1 (stereo partly drawn)	-0.622
5) Cc1ccc(S[C@]2(C(=O)NC(C)C)CC(=O)N(C(C)C)[C@@H]2c2ccc(CO)cc2I)cc1	-0.312
6) COCCOC(=O)N1C(=O)[C@@]2(c3cc(C#CC4(O)CCCCCC4)ccc31)[C@H](c1ccc(OCCO)cc1)N1[C@H](c3ccccc3)[C@H](c3ccccc3)OC(=O)[C@H]1[C@@H]2C(=O)Nc1nc2ccccc2s1	-1.07
7) CN1C(=O)C2C=CC(C(O)c3ccc(I)cc3)N(Nc3ccccc3)C2C1=O (stereo not drawn)	-0.177
8) COCCOC(=O)N1C(=O)[C@@]2(c3cc(C#Cc4ccc(OC)cc4)ccc31)[C@H](c1ccc(OCCO)cc1)N1[C@H](c3ccccc3)[C@H](c3ccccc3)OC(=O)[C@H]1[C@@H]2C(=O)Nc1nc2ccccc2s1	-0.735
9) C[C@@H]1ON(c2ccc(I)cc2)[C@H](c2ccc(OC(=O)OC(C)(C)C)cc2)[C@H]1C(=O)N1C(=O)OC[C@H]1Cc1ccccc1	-0.366
10) COCCOC(=O)N1C(=O)[C@@]2(c3cc(C#CCC(C(=O)OC)C(=O)OC)ccc31)[C@H](C(=O)NC[C@H](O)c1ccccc1)[C@H]1C(=O)O[C@H](c3ccccc3)[C@H](c3ccccc3)N1[C@@H]2c1ccc(O)cc1	-0.39
11) [N-]=[N+]=Nc1ccccc1[C@@H]1OC(c2ccc(OCCCO)cc2)=N[C@]1(Cc1ccccc1)C(=O)NCc1ccccc1	-1.14
12) [N-]=[N+]=Nc1ccccc1C[C@]1(C(=O)O)N=C(c2ccc(OCCCO)cc2)O[C@H]1c1ccccc1	-0.954
13) CC(C)C(CO)N1C(=O)[C@@H]2[C@H]3C(=O)OCC=C[C@H]3OC23C=CCN(C(C)(C)C)C(=O)[C@@H]13 (stereo partly drawn)	0.185
14) CC(=O)n1cc(C(O)C2C=CC3C(=O)N(c4ccccc4)C(=O)C3N2Nc2ccc(C(C)C)cc2)c2ccccc21 (stereo not drawn)	-0.886
15) COc1ccc(C#Cc2ccc3c(c2)[C@]2(C(=O)N3)[C@H](C(=O)N3CCCCCCC3)[C@H]3C(=O)O[C@H](c4ccccc4)[C@H](c4ccccc4)N3[C@@H]2c2ccc(O)cc2)cc1	-0.582
16) CCOC(=O)C1=CCC(c2ccccc2)N(S(=O)(=O)c2ccc([N+](=O)[O-])cc2)C1 (stereo not drawn)	0.602
17) CC(C)[Si]1(C(C)C)OCc2cc(-c3ccc(-c4ccc(Cl)c(Cl)c4)o3)nc(CCc3ccccc3)c21	-0.838
18) O=C1c2ccccc2[C@](Cc2ccccc2I)(C(=O)NC2CC2)[C@H](c2ccc(CO)cc2)N1Cc1ccccc1C(F)(F)F	-0.761
